target.system: T1, TNKS1 ARC subdomains 1–3 (ARC1–3, residues 178–645) (human, UniProt O95271 178-645)
T1 chain: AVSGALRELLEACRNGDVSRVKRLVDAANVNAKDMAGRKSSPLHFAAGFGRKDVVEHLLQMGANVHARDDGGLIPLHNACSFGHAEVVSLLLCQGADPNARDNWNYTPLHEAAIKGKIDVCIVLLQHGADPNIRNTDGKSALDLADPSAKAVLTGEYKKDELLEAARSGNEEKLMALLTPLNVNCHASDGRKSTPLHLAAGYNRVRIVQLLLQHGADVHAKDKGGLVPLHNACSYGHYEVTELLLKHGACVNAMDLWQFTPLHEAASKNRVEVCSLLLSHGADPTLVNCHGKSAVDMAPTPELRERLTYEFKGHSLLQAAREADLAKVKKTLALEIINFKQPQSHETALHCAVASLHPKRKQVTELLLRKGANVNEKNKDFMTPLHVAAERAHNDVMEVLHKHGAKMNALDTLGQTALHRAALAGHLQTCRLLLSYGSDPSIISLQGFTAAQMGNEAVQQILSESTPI
assay.method.text: FP
Where no end group is shown, it is not given here.
The entries below come with measured pKd values attached.
pKd here is simply -log10 of the concentration when that concentration is written in mol/L.

Value of measured pKd for the entry TSLETSIQLCGLIRACAEALRSLQQL (not fully specified (N-terminus); cysteine pairing not given here; also: 5-FAM-Ahx-conjugated) [SSSCA1-H2 peptide (TSLETSIQLCGLIRACAEALRSLQQL)] : 7.22

Next:
Value of measured pKd for the entry EDAPRPPVPGEEG (not fully specified (N-terminus); also: 5-FAM-Ahx-conjugated, source: synthetic peptide (bought: GenScript)) [Axin1 positive control peptide (EDAPRPPVPGEEG)] : 6.34

Value of measured pKd for the entry DVMACTQTALLQKLTWASAELGSS (not fully specified (N-terminus); also: 5-FAM-Ahx-conjugated, human SSSCA1, helix H1 region; source: synthetic peptide (bought: GenScript)) [SSSCA1-H1 peptide (DVMACTQTALLQKLTWASAELGSS)] : 6.34
